assay: chemical genetic growth profiling, strain panel (AID 1159580);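 further: tested at 20 µM; growth read once vehicle control cultures reached saturation at 30 °C; 1 = growth at the plate median or of vehicle wells; lower values mean less growth of the strain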; conditions: S. cerevisiae deletion strains, growth OD, locus YDR054C, strain cdc34
The whole screen tested about 5,500 compounds, of which about 2,000 (36%) were called active. About 18% were inconclusive and are not listed. No stated cut-off is given here; in the data, active means normalized growth mostly below about 0.91 (no sharp cut-off); inconclusive means no clear call, values can overlap the other calls; inactive means mostly above about 0.92. Some of the results follow.
Possible outcomes: 1 (yes) for active, 0 (no) for inactive

[[record]]
compound = "O=S(=O)(c1cc(Cl)ccc1Cl)N1CCc2ccccc2C1"
grouplabel = "0 (no)"

[[record]]
compound = "O=C1Nc2ccccc2/C1=C\\c1c[nH]c2ccccc12"
grouplabel = "1 (yes)"

[[record]]
compound = "N/C(=N/OC(=O)c1cnn(-c2ccc([N+](=O)[O-])cc2)c1C(F)(F)F)c1ccc(Cl)cc1"
grouplabel = "0 (no)"

[[record]]
compound = "COc1ccccc1N1CCN(C(=O)C(C)c2ccc(CC(C)C)cc2)CC1 (configuration not stated)"
grouplabel = "0 (no)"

[[record]]
compound = "N#Cc1nccnc1N1CCN(C(=O)Nc2cc(Cl)cc(Cl)c2)CC1"
grouplabel = "0 (no)"

[[record]]
compound = "O=c1cc(CSc2ccc(Cl)cc2)c2ccc(O)cc2o1"
grouplabel = "0 (no)"

[[record]]
compound = "O=C(NNc1cc(C(F)(F)F)cc(C(F)(F)F)c1)c1cnc2n(c1=O)CCS2"
grouplabel = "0 (no)"

[[record]]
compound = "O=C1Nc2ccccc2/C1=C\\c1cccc2ccccc12"
grouplabel = "0 (no)"

[[record]]
compound = "O=C(Nc1ccccc1C(=O)O)OCC1c2ccccc2-c2ccccc21"
grouplabel = "0 (no)"

[[record]]
compound = "FC(F)(F)Sc1ccc(OCc2n[nH]c(=S)n2-c2ccccc2)cc1"
grouplabel = "0 (no)"

[[record]]
compound = "Cc1cc(-c2onc(C)c2C(=O)Sc2ccccc2)no1"
grouplabel = "0 (no)"

[[record]]
compound = "N/C(=N/OC(=O)c1ccc([N+](=O)[O-])cc1)c1c(Cl)cccc1Cl"
grouplabel = "0 (no)"

